Task for the reader: assign each of the following sequences its reported phosphorylation enrichment.
# SYSTEM: Fes (UniProt P07332)
# Sequence (P07332 whole entry, looked up): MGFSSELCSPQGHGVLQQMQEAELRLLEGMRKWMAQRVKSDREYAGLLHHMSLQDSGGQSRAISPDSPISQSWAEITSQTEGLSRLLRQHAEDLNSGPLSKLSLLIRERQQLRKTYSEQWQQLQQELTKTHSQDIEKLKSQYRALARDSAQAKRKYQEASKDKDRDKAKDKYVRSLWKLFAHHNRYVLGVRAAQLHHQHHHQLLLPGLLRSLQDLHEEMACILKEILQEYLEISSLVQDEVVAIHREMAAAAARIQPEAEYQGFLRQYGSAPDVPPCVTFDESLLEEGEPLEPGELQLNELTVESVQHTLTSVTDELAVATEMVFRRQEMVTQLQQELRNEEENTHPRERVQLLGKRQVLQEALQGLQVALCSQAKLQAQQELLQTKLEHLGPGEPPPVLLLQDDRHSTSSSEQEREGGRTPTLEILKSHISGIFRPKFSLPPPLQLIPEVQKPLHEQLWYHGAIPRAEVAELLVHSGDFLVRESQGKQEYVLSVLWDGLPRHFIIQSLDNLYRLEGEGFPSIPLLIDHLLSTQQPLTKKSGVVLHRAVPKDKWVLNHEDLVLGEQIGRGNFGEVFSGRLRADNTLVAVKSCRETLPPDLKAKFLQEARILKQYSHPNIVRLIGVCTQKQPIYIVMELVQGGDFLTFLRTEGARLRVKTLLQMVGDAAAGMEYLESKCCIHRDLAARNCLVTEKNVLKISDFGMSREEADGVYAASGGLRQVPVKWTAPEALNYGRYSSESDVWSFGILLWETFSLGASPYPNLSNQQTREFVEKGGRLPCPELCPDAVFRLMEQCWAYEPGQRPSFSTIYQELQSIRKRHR
# EXPERIMENTAL DETAILS: phosphorylation enrichment, bacterial display (enrichment ratio); higher = better substrate or ligand; peptides without Tyr show the background;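 note: 11-residue human phosphosite peptides and single-mutation variants displayed on the E. coli surface, counted by deep sequencing, each peptide's frequency after selection divided by its frequency in the unselected input library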;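 note: frequency after pTyr selection over input frequency; kinase dosed for 20-30% of maximal phosphorylation in three min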
One number for each entry.

Consider the worked cases shown below.
INSERT INTO measurements (seq_text, recorded_metric, value_observed) VALUES
  ('PEVCDYGLGGG [GSTO1_Y239_A236V]', 'phosphorylation enrichment', 1.07),
  ('EDKSIYRRGAR [PRKCI_Y125]', 'phosphorylation enrichment', 0.669),
  ('GRSTFYWPRPR [GAGE12J_Y10_YF]', 'phosphorylation enrichment', 0.602),
  ('DQNVEYKGTVW [FHL1_Y117]', 'phosphorylation enrichment', 1.17),
  ('QGFDTYFGFLL [ARSB_Y165_R160Q_YF]', 'phosphorylation enrichment', 2.08),
  ('EELLRYAIVTP [POC5_Y37_H36R]', 'phosphorylation enrichment', 0.922);

Look up phosphorylation enrichment for the entries below, preserving their order.
1. DLDFTYIFPNI [PTEN_Y27_L25F_YF]
2. RLLRGYNQSAY [HLA-C_Y137_D138N]
3. ISKTWYSAEQF [CD207_Y217_P213S]

1.33
0.412
0.837

Please supply phosphorylation enrichment for each of the following items, keeping them in order.
1. WDLSEYSYKDP [ITGA3_Y237]
2. HLDRSYSFSFS [PEAR1_Y890_R885H_YF]

1: 0.998; 2: 2.08

Answer for every listed entry: what is its phosphorylation enrichment? The entries follow.
1. DDKEFYSVHNK [MET_Y1235_Y1230D_YF]
2. RPGGRYPVARR [SHANK3_Y1569_S1566G]

1. 0.99
2. 0.899
